System: human APOE RNA
Assay: Dose-dependent inhibition of human APOE RNA in HepG2 cells, electroporation, 50,000 cells per well, RT-PCR normalized to GAPDH (Example 4, Tables 8-10)
Format: cell-based
Conditions: HepG2 cells, electroporation, 24-hour treatment, 8,000 nM, Table 8
Strand notation (5' to 3'): a small letter for the sugar, then the base; units joined by * are phosphorothioate-linked, units joined directly phosphodiester-linked; [ ] holds rarer units or linkages, { } end groups; capitals alone tell only the bases. [ms] = mesyl phosphoramidate linkage; e = 2'-O-(2-methoxyethyl) (MOE); k = constrained ethyl (cEt); [5mC] = 5-methylcytosine; d = 2'-deoxy (DNA)
measured attribute: APOE RNA (% UTC) 8,000 nM
Answers are plain numbers, in % UTC.

A selection of reference data follows.
{"substance": "1785617: modified oligonucleotide complementary to human APOE RNA (k[5mC]*dT[ms]dT[ms]kG*dG[ms]kT*dG[ms]dA[ms]dA[ms]dT[ms]d[5mC]*dT*dT*dT*dA*dT*kT*kA*dA[ms]kA; antisense) [compound 1785617]", "system": "human APOE RNA", "reported measurement": 27}
{"substance": "1778111: modified oligonucleotide complementary to human APOE RNA (eA*e[5mC]eTeTeG*kG*dT*dG[ms]dA[ms]dA*dT*d[5mC]*dT*dT*dT*dA[ms]eTeT*eA*eA; antisense) [compound 1778111]", "system": "human APOE RNA", "reported measurement": 12}
{"substance": "1778115: modified oligonucleotide complementary to human APOE RNA (eA*e[5mC]eTeTkGkG*dT*dG[ms]dA[ms]dA*dT*d[5mC]*dT*dT*dT*dA[ms]eTeT*eA*eA; antisense) [compound 1778115]", "system": "human APOE RNA", "reported measurement": 32}
{"substance": "1778154: modified oligonucleotide complementary to human APOE RNA (e[5mC]*eT*eTeGeGeT*dG[ms]dA[ms]dA*dT*d[5mC]*dT*dT*dT*dA*dT*kTkAeA*eA; antisense) [compound 1778154]", "system": "human APOE RNA", "reported measurement": 35}
{"substance": "1785598: modified oligonucleotide complementary to human APOE RNA (k[5mC]*kT*kT*dG[ms]dG[ms]dT[ms]dG[ms]dA[ms]dA[ms]dT*d[5mC]*dT*dT*dT*dA*dT[ms]kT*kA*dA[ms]kA; antisense) [compound 1785598]", "system": "human APOE RNA", "reported measurement": 8}

Give APOE RNA (% UTC) 8,000 nM for each of the items listed below.
1. 1778114: modified oligonucleotide complementary to human APOE RNA (eA*e[5mC]eTeTkG*kG*dT*dG[ms]dA[ms]dA*dT*d[5mC]*dT*dT*dT*dA[ms]eTeT*eA*eA; antisense) [compound 1778114]
2. Aes^mCeoTeoTesGesGksTdsGdzAdzAdzTds^mCdsTdsTdsTdsAdzTksTksAesAe (eA*e[5mC]eTeT*eG*kG*dT*dG[ms]dA[ms]dA[ms]dT*d[5mC]*dT*dT*dT*dA[ms]kT*kT*eA*eA) [Compound No. 1757576]
3. 1778129: modified oligonucleotide complementary to human APOE RNA (eA*e[5mC]eTeTeG*kG*dT*dG[ms]dA[ms]dA*dT*d[5mC]*dT*dT*dT*dA[ms]kT*kT*eA*eA; antisense) [compound 1778129]

Response line:
11
15
14
